The values you see were collected from patent US20190209539A1.

system tested: wild-type Androgen Receptor (AR-wt) (Homo sapiens, UniProt P10275)
Construct: expressed in transfected cells; host or cells: LNCaP AR (cs) cells with ARE firefly luciferase lentiviral construct
Sequence (P10275 whole entry): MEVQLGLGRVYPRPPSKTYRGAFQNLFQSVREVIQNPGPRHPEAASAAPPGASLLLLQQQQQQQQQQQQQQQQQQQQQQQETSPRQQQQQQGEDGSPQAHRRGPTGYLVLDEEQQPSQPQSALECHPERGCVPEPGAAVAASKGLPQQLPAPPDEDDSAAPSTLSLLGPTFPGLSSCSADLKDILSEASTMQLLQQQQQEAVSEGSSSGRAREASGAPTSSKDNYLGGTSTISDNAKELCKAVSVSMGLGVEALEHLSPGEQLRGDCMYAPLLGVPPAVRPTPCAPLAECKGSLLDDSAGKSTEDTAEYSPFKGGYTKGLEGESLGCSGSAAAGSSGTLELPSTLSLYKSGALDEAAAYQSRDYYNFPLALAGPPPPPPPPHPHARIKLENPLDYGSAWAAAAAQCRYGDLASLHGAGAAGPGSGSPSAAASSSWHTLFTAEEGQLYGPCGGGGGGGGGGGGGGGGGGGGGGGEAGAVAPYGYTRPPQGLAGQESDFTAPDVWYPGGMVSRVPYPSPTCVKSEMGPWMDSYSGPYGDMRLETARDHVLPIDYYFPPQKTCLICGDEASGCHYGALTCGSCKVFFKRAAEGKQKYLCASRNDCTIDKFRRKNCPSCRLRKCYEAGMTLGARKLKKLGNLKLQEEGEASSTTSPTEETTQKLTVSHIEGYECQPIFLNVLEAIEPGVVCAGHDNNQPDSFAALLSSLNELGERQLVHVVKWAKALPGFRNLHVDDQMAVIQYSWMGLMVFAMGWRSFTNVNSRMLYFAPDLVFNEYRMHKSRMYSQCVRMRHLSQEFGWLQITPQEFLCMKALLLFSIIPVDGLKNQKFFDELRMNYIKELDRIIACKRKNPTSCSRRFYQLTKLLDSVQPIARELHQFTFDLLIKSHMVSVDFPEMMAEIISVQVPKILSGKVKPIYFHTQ
test name: LNCaP-AR-wt AG: ARE luciferase reporter assay, agonist mode
Assay type: cell-based
condition info: maximum % stimulation (agonist response), % of 1 μM R-1881 max
measured quantity: LNCaP-AR-wt AG MAX % Stim (%)
Report the value in % with no unit label.

| molecule | measured quantity | unit spec | value observed |
| --- | --- | --- | --- |
| COCCNC(=O)c1ccc(N2C(=S)N(c3cnc(C#N)c(C(F)(F)F)c3)C(=O)C23CCC3)cc1F | LNCaP-AR-wt AG MAX % Stim | % | −0.1 |

State the recorded LNCaP-AR-wt AG MAX % Stim for this entry: `N#Cc1ncc(N2C(=O)C3(CCC3)N(c3cccc(CO)c3)C2=S)cc1C(F)(F)F`
0.7

And then `N#Cc1ncc(N2C(=O)C3(CCC3)N(c3ccc(Oc4ccncn4)cc3)C2=S)cc1C(F)(F)F` , what is it?
0.5
